COMPOUND: COc1cc(C=NO)ccc1OCCOC(=O)c1ccccc1
logP: 2.94
--
COMPOUND: COc1cc(C=NO)ccc1OCCOC(=O)COc1ccccc1
logP: 2.1
--
COMPOUND: COc1ccc(C(C)=O)c(N)c1
logP: 1.76
--
COMPOUND: Cc1c(N2CCOCC2)c(=O)n(-c2ccccc2)c(=O)n1C
logP: 0.69
--
COMPOUND: Cc1nnc(SCc2ccccc2)o1
logP: 1.74
--
COMPOUND: COc1cc(C=NO)ccc1OCCOC(=O)c1cccc(Cl)c1
logP: 3.94
--
COMPOUND: NC(=O)Nc1cccc(NC(N)=O)c1
logP: 0.58
--
COMPOUND: CC(C)Cn1c(=O)n(C)c(=O)c2[nH]cnc21
logP: 1.15
--
COMPOUND: O=NN(CCCl)C(=O)NC1(C(=O)O)CCCC1
logP: 2.01
--
COMPOUND: O=c1cc(-c2ccc(O)cc2)oc2ccccc12
logP: 3.2
--
COMPOUND: CC(=O)Nc1ccccc1NC(C)=O
logP: -0.03
--
COMPOUND: COc1cc(C=NO)ccc1OCCOC(=O)c1ccc(Cl)cc1
logP: 3.92
--
COMPOUND: COc1cccc2c1C(=O)c1c(O)c3c(c(O)c1C2=O)CC(O)(C(=O)CO)CC3O (stereo unspecified)
logP: 2.74
--
COMPOUND: C=CCn1c(C)c(N(C)C)c(=O)n(-c2ccccc2)c1=O
logP: 1.44
--
COMPOUND: CCOC(=O)c1cncn1C(C)c1ccccc1 (stereo unspecified)
logP: 3.05
--
COMPOUND: O=C(O)c1cc(=O)c2cc3c(cc2o1)CCCC3
logP: 3.4
--
COMPOUND: COCCN(N=Nc1[nH]cnc1C(N)=O)C(C)(C)C
logP: 1.14
--
COMPOUND: CN(CCO)C1=C(N2CC2)C(=O)C(N(C)CCO)=C(N2CC2)C1=O
logP: -0.37
--
COMPOUND: CCOC(CCC#N)OCC
logP: 0.75
--
COMPOUND: O=C(Nc1ccc(Cl)c(Cl)c1)C1CCCCC1
logP: 4.72
--
COMPOUND: CN=C=S
logP: 0.94
--
COMPOUND: CCOC(=O)CC(=O)C=Cc1ccc(C)cc1
logP: 2.63
--
COMPOUND: CCCc1c(OCCCCc2nnn[nH]2)ccc(C(C)=O)c1O
logP: 3.82
--
COMPOUND: Cc1oc2ccccc2c(=O)c1C
logP: 2.31
--
COMPOUND: CCOC(=O)N=[N+]([O-])c1ccccc1
logP: 2.53
--
COMPOUND: O=c1cc(-c2ccccc2)oc2cc(O)ccc12
logP: 3.62
--
COMPOUND: NNc1ccc(Br)cc1
logP: 1.39
--
COMPOUND: O=S([O-])c1ccccc1.[Na+]
logP: -3.54
--
COMPOUND: CCC(C)N=C=S (stereo unspecified)
logP: 2.81
--
COMPOUND: c1ccc(CSc2nnc[nH]2)cc1
logP: 1.45
--
COMPOUND: O=c1[nH]cc(I)c(=O)[nH]1
logP: 0.04
--
COMPOUND: CCC(C)NC(=O)C(=Cc1ccccc1)Sc1ccccc1 (stereo unspecified)
logP: 4.36
--
COMPOUND: CCCCCC(=O)N(C)c1ccc(S(=O)(=O)N(C)C)cc1
logP: 2.16
--
COMPOUND: CC(C)S(=O)(=O)n1c(N)nc2ccc(/C(=N/O)c3ccccc3)cc21
logP: 3.1
--
COMPOUND: CC1=C(C(=O)O)N2C(=O)C(NC(=O)C(O)c3ccccc3)C2SC1 (stereo unspecified)
logP: 0.46
--
COMPOUND: CCCCC(=O)Nc1ccc(Cl)c(Cl)c1
logP: 4.17
--
COMPOUND: c1ccc2c(c1)CNc1ccccc1C2
logP: 2.9
--
COMPOUND: CNc1cccc2ccccc12
logP: 2.88
--
COMPOUND: COc1ccccc1C=CC(=O)OCCOc1ccc(C=O)cc1OC
logP: 3.65
--
COMPOUND: CC(=O)Nc1ccc2c(=O)c(C)c(C)oc2c1[N+](=O)[O-]
logP: 1.61
--
COMPOUND: Cn1c(SCC2=C(C(=O)O)N3C(=O)C(NC(=O)Cc4cccs4)C3SC2)nnc(O)c1=O (stereo unspecified)
logP: -0.52
--
COMPOUND: COc1cc(C=O)ccc1OCCO
logP: 0.58
--
COMPOUND: CN(C(=O)CCO)c1ccc(S(=O)(=O)N(C)C)cc1
logP: -0.26
--
COMPOUND: CCN(CC)c1c(C)n(-c2ccccc2)c(=O)n(C)c1=O
logP: 2.19
--
COMPOUND: CSC(=O)Nc1ccccc1
logP: 2.4
--
COMPOUND: COc1ccc(-c2ncc[nH]2)c(OC)c1
logP: 1.72
--
COMPOUND: FC(F)(F)C(F)(F)C(F)(F)C(F)(F)C(F)(F)F
logP: 4.4
--
COMPOUND: COc1ccc(-c2nc3ccccc3[nH]2)c(OC)c1
logP: 2.59
--
COMPOUND: Cc1cccc(C)c1NC(=O)c1cccc(CN2CCCC2)c1
logP: 3.1
--
COMPOUND: O=C1C=CC(=NCl)C=C1
logP: 1.26
--
COMPOUND: CCOc1cc(Cc2cnc(N)nc2N)cc(OCC)c1
logP: 2.52
--
COMPOUND: CC(O)COc1cccc2oc(C(=O)O)cc(=O)c12 (stereo unspecified)
logP: 1.32
--
COMPOUND: COc1cc(S(C)=O)ccc1-c1cn2ccncc2n1 (stereo unspecified)
logP: 1.11
--
COMPOUND: CC(=O)Nc1ccc(C(C)(C)C)cc1
logP: 3.05
--
COMPOUND: S=c1cc[nH]cc1
logP: 0.2
--
COMPOUND: CNC(=S)Nc1ccccc1
logP: 0.85
